Assay: Plasma PK of brensocatib, BID vs QD oral dosing, Sprague Dawley rats
Format: in vivo
Conditions: both sexes, Sprague-Dawley, rat, SD rats, oral BID, 2 mg/kg/day, first 24 h, read-out: AUC0–24h
quantity_measured: AUC(0-t) (ng·h/mL)

{"compound": "Cn1c(=O)oc2ccc(-c3ccc(C[C@@H](C#N)NC(=O)[C@@H]4CNCCCO4)cc3)cc21 [brensocatib]", "unit_label": "ng·h/mL", "test_value": 4730}

###

Assay: Plasma PK of brensocatib, BID vs QD oral dosing, C57BL/6 mice
Format: in vivo
Settings: both sexes, mouse, C57BL/6 mice, oral QD, 30 mg/kg/day, first 24 h, read-out: AUC(0–24)
Protocol: A dose frequency study was performed in male and female mice (C57BL/6 & BALB/c) and in male and female rats (Sprague Dawley & Wistar) investigating twice daily (BID) versus once daily (QD) brensocatib administration. Briefly, animals were weighed and randomized into different treatment groups. […] For sparse PK analysis via LC-MS/MS, plasma was collected from animals during the first 24 h of dosing at prescribed timepoints. […] See section Quantification of Plasma Brensocatib Concentrations for details. […]
quantity_measured: AUC(0-t) (µM·h)

{"chemical_smiles": "Cn1c(=O)oc2ccc(-c3ccc(C[C@@H](C#N)NC(=O)[C@@H]4CNCCCO4)cc3)cc21", "quantity_measured": "AUC(0-t)", "test_value": 125}

###

Test: Plasma PK of brensocatib, BID vs QD oral dosing, C57BL/6 mice
Type: in vivo
Conditions: both sexes, C57BL/6, mouse, po, 0.75 mg/kg/day, C57BL/6 mice, oral QD, 0.75 mg/kg/day, read-out: t1/2, AM dose (converted)

{"chemical_smiles": "Cn1c(=O)oc2ccc(-c3ccc(C[C@@H](C#N)NC(=O)[C@@H]4CNCCCO4)cc3)cc21", "unit_label": "h", "half-life": 9.62}

###

Assay: Plasma PK of brensocatib, BID vs QD oral dosing, Sprague Dawley rats
Assay type: in vivo
Conditions: both sexes, Sprague-Dawley, rat, SD rats, oral QD, 0.3 mg/kg/day, first 24 h, read-out: AUC(0–24)

{"compound": "Cn1c(=O)oc2ccc(-c3ccc(C[C@@H](C#N)NC(=O)[C@@H]4CNCCCO4)cc3)cc21 [brensocatib]", "unit_label": "µM·h", "AUC(0-t)": 0.64}

###

Assay: Plasma PK of brensocatib, BID vs QD oral dosing, BALB/c mice
Type: in vivo
Settings: both sexes, BALB/c, mouse, po, 2 mg/kg/day, oral BID, 2 mg/kg/day, evening dose, read-out: t1/2, PM dose (converted)
Procedure: A dose frequency study was performed in male and female mice (C57BL/6 & BALB/c) and in male and female rats (Sprague Dawley & Wistar) investigating twice daily (BID) versus once daily (QD) brensocatib administration. Briefly, animals were weighed and randomized into different treatment groups. […] For sparse PK analysis via LC-MS/MS, plasma was collected from animals during the first 24 h of dosing at prescribed timepoints. […] See section Quantification of Plasma Brensocatib Concentrations for details. […]

{"chemical_smiles": "Cn1c(=O)oc2ccc(-c3ccc(C[C@@H](C#N)NC(=O)[C@@H]4CNCCCO4)cc3)cc21", "half-life": "1.19 h"}

###

Assay: Plasma PK of brensocatib, BID vs QD oral dosing, C57BL/6 mice
Type: in vivo
Conditions: both sexes, mouse, C57BL/6 mice, oral BID, 20 mg/kg/day, first 24 h, read-out: AUC0–24h

{"compound": "Cn1c(=O)oc2ccc(-c3ccc(C[C@@H](C#N)NC(=O)[C@@H]4CNCCCO4)cc3)cc21 [brensocatib]", "AUC(0-t) [ng·h/mL]": 15900}
